# Tested on: NCI-H322M lung
# Test Protocol: NCI-60 one-dose screen, 48 h (100 = growth as untreated, 0 = no growth, -100 = all killed)
# Cond: 10 µM unless noted
About 83,000 compounds went through this panel and 20% of them were active in at least one assay; those are over-represented in the sample as a whole. Active and inactive are the calls of the source. Rule for the calls: active = growth percent below 10; inactive = the rest.
Reported values of growth for individual entries
Outcome Measure: growth

Molecule	Recorded Value
N#Cc1ccc(S(=O)(=O)Nc2ccc(-c3cnc(N)[nH]3)cc2)cc1	97.4% (inactive)
CCNC(=O)Oc1ccc(/C(=C(/C)c2ccccc2)c2ccc(OCCN3CCCC3)cc2)cc1	93.2% (inactive)
COc1ccc(/C=N\NC(=O)c2ccc3nc(-c4ccc(Br)cc4)[nH]c3c2)cc1	66.2% (inactive)
CCCCSc1nnc(-c2ccc(-c3ccc(Cl)cc3)nc2C)o1	103% (inactive)
C=C1C(=O)O[C@@H]2C[C@@H](C)/C=C\C(=O)[C@](C)(OC(C)=O)C[C@H](OC(=O)/C(C)=C\C)[C@@H]12	88% (inactive)
COCCOc1ccc(-c2csc(NC(=O)CN3CCN(CCO)CC3)n2)cc1NS(=O)(=O)c1cccc2c(N(C)C)cccc12	68.4% (inactive)
CC(C)(C)n1nnnc1C(Nc1nccs1)c1cc2cccc3ccc4cccc1c4c32 (centres undefined)	95.5% (inactive)
COc1cc2cc(Oc3ccc(NC(=O)Nc4cc(C(F)(F)F)cc(C(F)(F)F)c4)cc3)c(C)nc2cc1OCCN(C)C	109% (inactive)
O=c1c2c(O)cccc2oc2c3c(cc(O)c12)O[C@H]1OC=C[C@@H]31	88.4% (inactive)

====

# System: EKVX NSCLC
# Test Protocol: NCI-60 one-dose screen, 48 h
# Cond: 10 µM unless noted
This is part of a sample that, as a whole, favours compounds with a hit. Of some 83,000 tested, about 20% had one in any assay. Calls of active or inactive are those of the source. Rule for the calls: active = growth percent below 10; inactive = the rest.
Outcomes: active, inactive

Compound	Label Value
CS(=O)(=O)c1ccc(-c2nn(-c3ccccc3)cc2/C=N/NC(=O)c2ccncc2)cc1	inactive
COC(=O)Nc1ccc(-c2nc(-c3cccc(O)c3)c(-c3ccnc(Br)c3)[nH]2)cc1	inactive
O=C1c2c(c3c4cc(Br)ccc4[nH]c3c3ccc4ccccc4c23)C(=O)N1CCN1CCCCC1	inactive
O=S(=O)(Nc1cc(Cl)c(F)c(Cl)c1)c1ccc(-c2cnc(C3CC3)o2)cc1	inactive
O=C(/C=C1\C=CN(CCCCF)c2ccccc21)n1ccc2ccccc21	inactive
C#CCOc1ccc(/C=N/Nc2nc(-c3cc(Cl)ccc3Cl)cs2)cc1	inactive
CC1CCc2c(sc3nc(SCC(=O)N/N=C/c4ccc(Cl)cc4)n(-c4ccccc4)c(=O)c23)C1 (configuration not stated)	inactive
COc1ccc([C@@H]2[C@@H](O)C(=O)N2c2cc(OC)c(OC)c(OC)c2)cc1	inactive
O=c1oc2ccc(-c3ccc(F)cc3F)cc2c(=O)n1-c1ccc(F)c(F)c1	active
CC(C)(C)CC(C)(C)n1nnnc1C(Nc1ccccc1)c1cc2cccc3ccc4cccc1c4c32 (configuration not stated)	inactive
COc1ccc(CN2C(=O)/C(=C/c3nc(CO)cs3)SC2=S)cc1	inactive
COc1cc(C2=NN(C(C)=O)C(c3ccc(N4CCOCC4)cc3)C2)cc(OC)c1OC (configuration not stated)	inactive
COc1ccc(C(=O)n2cc(C=O)c3ccccc32)cc1	inactive
O=C(C[n+]1ccnc2ccccc21)c1ccc(O)c(O)c1	inactive
O=C(CN1C(=O)S/C(=C\c2ccccc2)C1=O)Nc1ccc(C(=O)/C=C/c2cc3ccccc3nc2Cl)cc1	inactive
CCN(CC)CCN1C(=O)c2c(c3c4cc(Br)ccc4[nH]c3c3ccc4ccccc4c23)C1=O	active
COc1cc(O)c2c(c1)[C@H]1O[C@@H]1C[C@H](O)[C@H](O)C(=O)/C=C\C[C@H](C)OC2=O	inactive
CCOC(=O)c1ccc(N/C=C/C(=O)c2ccccc2)cc1	inactive
Cc1cc(F)cc(NS(=O)(=O)c2ccc(-c3cnc(C4CC4)o3)cc2)c1	inactive
C=CCn1c(SCC(=O)Nc2cccc(C(=O)/C=C/c3ccc(C)cc3)c2)nc2ccccc2c1=O	inactive
Cc1cc(Cl)cc(NS(=O)(=O)c2ccc(-c3cnc(C4CC4)o3)cc2)c1	inactive
C=C(C)[C@@H]1CC[C@]2(C(=O)ON)CC[C@]3(C)[C@H](CC[C@@H]4[C@@]5(C)C/C(=C/c6ccc(Br)cc6)C(=O)C(C)(C)[C@@H]5CC[C@]43C)[C@@H]12	inactive
COc1ccc(S(=O)(=O)n2cc(C=O)c3ccccc32)c(OC)c1	inactive
CCC(=O)Nc1ccc(-c2nc(-c3cccc(O)c3)c(-c3ccnc(Br)c3)[nH]2)cc1	inactive
COc1cc2c3c(n(CCCNCC4CC4)c(=O)c2cc1OC)-c1cc2c(cc1C3=O)OCO2	inactive
Cc1cn(-c2cc(NC(=O)c3cncc(C#Cc4cnc5ccc(O[C@H]6CCOC6)nn45)c3)cc(C(F)(F)F)c2)cn1	inactive
CC1(C)CC[C@]2(C(=O)N3CCCN(CC#N)CC3)CC[C@]3(C)C(=CC[C@@H]4[C@@]5(C)CC[C@H](O)C(C)(C)[C@@H]5CC[C@]43C)[C@H]2C1	inactive
COc1cnc2c(c1)C(=O)c1c-2n(CCCNCC2CC2)c(=O)c2cc(F)ccc12	inactive
COc1cc([C@H]2OC[C@H]3[C@@H]2CO[C@@H]3c2ccc(O)c(OC)c2)ccc1O	inactive
COc1cc(-c2noc(C[C@@H](NC(=O)OCc3ccccc3)C(C)C)n2)cc(OC)c1OC	inactive
N#Cc1c(-c2ccccc2)cc(-c2c[nH]c3ccccc23)nc1-c1c[nH]c2ccccc12	inactive
CCOC(=O)c1c(NCC(=O)Nc2ccc(Br)cc2)sc2c1CCCC2	inactive
O=S(=O)(Nc1ccc(-c2nc(-c3cccc(O)c3)c(-c3ccnc(Br)c3)[nH]2)cc1)c1ccccc1	inactive
COc1cc2c3c(n(CCCN4CCCCC4)c(=O)c2cc1OC)-c1cc2c(cc1C3=O)OCO2	active
C/C(=C(/c1ccc(O)cc1)c1ccc(OCCN2CCCCCC2)cc1)c1ccccc1	inactive
N#C/C(=C\c1ccc(Cl)cc1Cl)C(N)=O	inactive
C#CCOc1ccc(C(Nc2ccc(Cl)cc2)c2nnnn2C2CCCCC2)cc1 (configuration not stated)	inactive
